The measured values listed here are drawn from ChEMBL document CHEMBL2331439.

Listing: IC50 of selected molecules
target: Mitogen-activated protein kinase 14 (Homo sapiens, UniProt Q16539); assay: Inhibition of recombinant MAPK14 (unknown origin) by FRET-based Z'-LYTE assay
Sequence (Q16539 whole entry): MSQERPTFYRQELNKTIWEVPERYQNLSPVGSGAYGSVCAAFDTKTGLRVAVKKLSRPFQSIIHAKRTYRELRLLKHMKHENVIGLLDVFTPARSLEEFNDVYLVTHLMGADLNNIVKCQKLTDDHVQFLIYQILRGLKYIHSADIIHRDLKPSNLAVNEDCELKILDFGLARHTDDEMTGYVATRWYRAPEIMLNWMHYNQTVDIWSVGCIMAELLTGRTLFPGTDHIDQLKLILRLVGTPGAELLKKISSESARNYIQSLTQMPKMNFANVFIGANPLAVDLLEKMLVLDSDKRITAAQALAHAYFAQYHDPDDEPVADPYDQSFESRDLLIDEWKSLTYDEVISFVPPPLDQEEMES

Observe how each entry below is paired with its result.
CN1C/C(=C\c2ccccn2)C(=O)[C@H](Cc2ccccn2)C1 | > 100 µM
O=C1/C(=C/c2ccccn2)CSC/C1=C\c1ccccn1 | > 100 µM
CN1C/C(=C\c2ccccn2)C(=O)[C@@H](Cc2ccccn2)C1 | > 100 µM
O=C1/C(=C/c2ccccn2)CNC/C1=C\c1ccccn1 | 35 µM

Lab note: next molecule to report on.
Q: Param item = CN1C/C(=C\c2ccccn2)C(=O)/C(=C/c2ccccn2)C1 ; retrieve measured IC50.
A: > 100 µM

###

Quick reference: pIC50 of the listed items.
target: RAC-beta serine/threonine-protein kinase (Homo sapiens, UniProt P31751); assay: Inhibition of recombinant AKT2 (unknown origin) by FRET-based Z'-LYTE assay
Sequence (P31751 whole entry): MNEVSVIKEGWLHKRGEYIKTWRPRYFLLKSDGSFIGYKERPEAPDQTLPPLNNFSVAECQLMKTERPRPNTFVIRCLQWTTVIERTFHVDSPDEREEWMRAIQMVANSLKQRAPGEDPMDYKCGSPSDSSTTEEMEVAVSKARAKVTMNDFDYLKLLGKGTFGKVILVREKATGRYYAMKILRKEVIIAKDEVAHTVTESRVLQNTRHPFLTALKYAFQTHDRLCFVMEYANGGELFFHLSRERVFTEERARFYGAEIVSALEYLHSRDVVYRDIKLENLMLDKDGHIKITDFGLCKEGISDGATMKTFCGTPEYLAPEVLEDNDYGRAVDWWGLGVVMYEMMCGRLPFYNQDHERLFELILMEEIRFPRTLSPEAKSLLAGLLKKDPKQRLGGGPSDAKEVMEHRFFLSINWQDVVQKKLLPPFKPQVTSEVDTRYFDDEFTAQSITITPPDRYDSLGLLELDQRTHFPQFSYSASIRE
For clarity, pIC50 is expressed as the negative log10 of concentration in mol/L.

O=C1/C(=C/c2ccccn2)CSC/C1=C\c1ccccn1 | 5.48

Q: Fill in: pIC50 of O=C1/C(=C/c2ccccn2)CNC/C1=C\c1ccccn1 is ___
A: 7.70

Q: Return reported pIC50; argument: CN1C/C(=C\c2ccccn2)C(=O)/C(=C/c2ccccn2)C1
A: 5.72

###

molecular target: Mitogen-activated protein kinase 1 (Homo sapiens); test: Inhibition of recombinant ERK2 (unknown origin) by FRET-based Z'-LYTE assay
Sequence (P28482 whole entry): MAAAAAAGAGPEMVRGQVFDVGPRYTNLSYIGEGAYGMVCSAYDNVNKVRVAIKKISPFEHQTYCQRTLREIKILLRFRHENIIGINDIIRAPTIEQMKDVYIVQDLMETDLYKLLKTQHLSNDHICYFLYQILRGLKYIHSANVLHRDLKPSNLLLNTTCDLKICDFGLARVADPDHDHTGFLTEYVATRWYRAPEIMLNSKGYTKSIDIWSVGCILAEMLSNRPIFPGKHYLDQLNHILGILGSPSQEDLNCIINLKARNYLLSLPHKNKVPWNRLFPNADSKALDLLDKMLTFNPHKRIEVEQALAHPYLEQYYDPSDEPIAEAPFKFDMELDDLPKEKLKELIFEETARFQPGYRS
assay metric: IC50

Below: 3 compounds and their reported IC50.
CN1C/C(=C\c2ccccn2)C(=O)[C@H](Cc2ccccn2)C1 | > 100 µM
CN1C/C(=C\c2ccccn2)C(=O)[C@@H](Cc2ccccn2)C1 | > 100 µM
O=C1/C(=C/c2ccccn2)CNC/C1=C\c1ccccn1 | 4 µM

Q: Given the compound O=C1/C(=C/c2ccccn2)CSC/C1=C\c1ccccn1 , what is its reported IC50?
A: 20 µM

Q: Any idea what IC50 was measured for CN1C/C(=C\c2ccccn2)C(=O)/C(=C/c2ccccn2)C1 ?
A: 27 µM
